measurementNotes: in vivo
setupConditions: male, BALB/c, mouse, plasma, po, 100 mg/kg/day
metricName: Tmax (min)

In [3]: df
Out[3]:
                                     smiles    u  reportedresult
0  C[C@H](Oc1cc(C(F)(F)F)cc(C(F)(F)F)c1)C1CC(=O)CC(=O)C1  min              30
